// data source = PubChem BioAssay (NCI)

Test system: T-47D breast
Experiment: NCI tumour cell line growth inhibition, 48 h
Would you kindly list TGI for each of these compounds?

// query Respond only with TGI recorded for Cc1ccc(C(SCC(N)C(=O)O)(c2ccccc2)c2ccc(C)cc2)cc1 (stereo not drawn)
// result 16.9 µM

// query For the compound "O=C(Nc1ccc(OS(=O)(=O)c2ccccc2)cc1)C12CC3CC(CC(C3)C1)C2" , report TGI.
// result > 100 µM

// query Entry COc1ccc2c(c1)CCC1C2CC[C@@]2(C)C1CC1=CC(COC(C)=O)C3C(=O)c4ccccc4C(=O)C3C12 (stereo partly drawn) needs its TGI filled in; supply it.
// result > 100 µM

====

System: ACHN renal
Assay: NCI tumour cell line growth inhibition, 48 h; in the data active means GI50 below about 0.43 µM; inactive means the rest
Parameter call: string, one of yes (1) = active, no (0) = inactive

// query For this molecule, state the assay outcome: CC(=O)OC1Oc2ccccc2-c2oc(=O)c(-c3cc(=O)oc4cc(O)ccc34)cc21 (centres undefined)
// result no (0)

// query Hello, I am checking results. What call was entered for "C=C(C)[C@@]12OC3(/C=C/C=C/CCCCC)O[C@@H]1[C@@H]1[C@@H]4O[C@]4(CO)[C@@H](O)[C@]4(O)C(=O)C(C)=C[C@H]4[C@@]1(O3)[C@H](C)[C@H]2OC(=O)c1ccccc1" ?
// result no (0)

// query State the result this test recorded for "O=C1NC(=Nc2ccccc2)S/C1=C\c1ccc2ncccc2c1" .
// result no (0)

// query Hello, I am checking results. What call was entered for "COC(=O)/C=C/c1cc(O)c2oc(-c3ccc(O)c(O)c3)c(C(=O)OC)c2c1" ?
// result yes (1)

====

Assign TGI to each entry below.
Test system: NCI-H522 lung
Experiment: NCI tumour cell line growth inhibition, 48 h
Express the result in µM but write the number alone.

// query Using the record for CC(=O)Nc1cc(C(=O)Nc2cc(C(=O)N3CC(CCl)c4c3cc(N)c3ccccc43)nn2C)nn1C (stereo not given) , state its measured TGI.
// result 0.0181

// query State its TGI: "CC/C(=C(/c1ccc(OCCN(C)C)cc1)c1ccc(OC(=O)CCCCC(=O)c2c(C)[nH]c(/C=C3\N=C(c4ccc[nH]4)C=C3OC)c2C)cc1)c1ccccc1"
// result 14.3

// query Read off the recorded TGI for "CNCCNc1c2c(c(NCCNC)c3c(CN(C)C)c[nH]c13)C(=O)c1ccccc1C2=O"
// result 3.59

// query Return the recorded TGI value; entry: "COc1ccc(/C=C(/C(=O)c2ccc(Cl)cc2)N2C=CC=CC2=C(C#N)C#N)cc1OC"
// result 0.953

====

Test system: ACHN renal
Assay: NCI tumour cell line growth inhibition, 48 h
RESULT TYPE: GI50

// query Supply measured GI50 of "C/C1=C\CC[C@@]2(C)O[C@@H]2[C@H]2OC(=O)[C@@H](CN(C)C)[C@@H]2CC1" in your reply.
// result 15.6 µM

// query Look up and report measured GI50 for this entry: CC(O)C(N=Cc1ccccc1[O-])C(=O)[O-].CC(O)C(N=Cc1ccccc1[O-])C(=O)[O-].[Co+2] (stereo not given)
// result > 100 µM

// query // fetch GI50 given entry "COc1ncnc(C2CC2)c1-c1ncc2cnn(Cc3ccc(-c4nc(C(F)(F)F)cn4C(C)C)cc3)c2n1"
// result 17.6 µM

// query Identify measured GI50 corresponding to "Clc1ccc2c(NCCCNc3nccc(Nc4ccc(Br)cc4)n3)ccnc2c1"
// result 1.66 µM

// query Note down GI50 recorded for "Oc1ccc(Cl)cc1Cc1cc(Cl)cc(Cl)c1O"
// result 3.69 µM

====

Please respond with reported TGI for every item in the list.
Tested on: K-562 leukemia
Test: NCI tumour cell line growth inhibition, 48 h

// query Specify reported TGI for the compound shown: CC(=O)c1c2c(cc3c1CC1(Cc4ccccc4C1=O)C3)CCC2 (configuration not stated)
// result > 100 µM

// query Entry "O=C(OCc1ccc2cccc(O)c2n1)N1CCN(C(=O)c2cc3cc(F)ccc3[nH]2)CC1" needs its TGI filled in; supply it.
// result 2.4 µM

// query Look up and state reported TGI for COC(=O)C(C)(NC(=O)C(CC(=O)OC(C)(C)C)NC(=O)OC(C)(C)C)c1ccccc1 (configuration not stated)
// result > 100 µM

// query In one line, give reported TGI of the entry COc1ccc(C2CC(c3cccc(Nc4ccncc4)c3)=NN2c2cc(Cl)cc(Cl)c2)cc1 (configuration not stated) .
// result 5.57 µM

// query Query TGI for "COc1ccc(C(=O)Sc2c(-c3ccccc3)c(=O)n(-c3ccccc3)c(=S)n2-c2ccccc2)cc1"
// result > 100 µM

// query Please indicate TGI recorded for "COC(=O)/C=C/c1cc(O)c2oc(-c3ccc(O)c(O)c3)c(C(=O)OC)c2c1"
// result 26.9 µM

// query Note TGI for the compound shown: CC(=O)OC1Oc2ccccc2-c2oc(=O)c(-c3cc(=O)oc4cc(O)ccc34)cc21 (configuration not stated)
// result > 100 µM

// query Give the reported value of TGI for this record: COC(=O)C1=C(C)N(NC(=O)c2ccccc2)C(C)(O)C12CCOC2=O (configuration not stated)
// result > 100 µM

// query Return the recorded TGI value; entry: CC1=CC(/C=C(\C)CCCc2ccoc2)C2(OC(=O)C(C)=C2O)[C@H]2C1CC[C@@H]2C (some centres not stated)
// result > 100 µM

// query Tell us which TGI value is on record for "C[C@]12CC[C@H](O)CC1=CC[C@@H]1[C@@H]2CC[C@]2(C)C(=O)[C@@H](N3CCOCC3)C[C@@H]12"
// result > 100 µM

// query Complete the entry with TGI for "COc1cc(Nc2cn[nH]c2-c2ccc(Cl)cc2)cc(OC)c1OC"
// result 97.2 µM

// query Read off the recorded TGI for "Cc1cccc(-c2nc3ccc([N+](=O)[O-])cc3c(=O)o2)c1"
// result > 100 µM

// query Indicate the recorded TGI value for this compound: CC(SC(C)C(=O)N/N=C/c1cccc(Cl)c1)C(=O)N/N=C\c1cccc(Cl)c1 (configuration not stated)
// result > 100 µM

// query Give the reported value of TGI for this record: "O=C1OC[C@@H]2Cc3cc4c(cc3[C@H](c3ccc5c(c3)OCO5)[C@@H]12)OCO4"
// result > 25 µM

// query Give the reported value of TGI for this record: "O=[N+]([O-])c1ccc(Cl)c(C=NC23CC4CC(CC(C4)C2)C3)c1"
// result > 10 µM

// query Report measured TGI; entry is "COc1ncnc(C2CC2)c1-c1ncc2cnn(Cc3ccc(-c4nc(C(F)(F)F)cn4C(C)C)cc3)c2n1"
// result > 100 µM

// query Note TGI for the compound shown: COc1ccc2nc3ccc(OC)cc3c(S(=O)CCCl)c2c1 (configuration not stated)
// result > 23.6 µM

// query Specify measured TGI for "CC(C)=C[C@@H]1C[C@H](C)[C@H]2CC[C@H](C)C3=C2[C@](O)(OC3=O)[C@]1(C)O" .
// result > 100 µM

// query Output TGI of CC(=O)NC1C(OCc2ccccc2)OC(CO)C(O)C1OC(C)C(=O)NC(C)C(=O)NC(CCC(=O)NCCCNc1c2ccccc2nc2cccc([N+](=O)[O-])c12)C(N)=O (configuration not stated)
// result 11.1 µM

// query Tell us which TGI value is on record for "C[C@]12C=CC(=O)C=C1CC[C@H]1[C@@H]3C[C@@H](O)[C@](O)(C(=O)CO)[C@@]3(C)C[C@H](O)[C@@]12F"
// result > 100 µM

// query Please look at this compound and report its TGI: O=C(/C=C/c1ccc(O)cc1)OC[C@@H](O)COC1OC(CO)C(O)C(O)C1O (some centres not stated)
// result > 100 µM

// query Annotate the compound CC(=O)OC1CCC2(C)C3CCC4(C)C(c5ccc(=O)oc5)CC5OC54C3CCC2(O)C1 (configuration not stated) with its measured TGI.
// result 24 µM

// query State its TGI: CC1CC(N)=Nc2ccccc2N1 (configuration not stated)
// result > 100 µM

// query Fill in reported TGI for this entry: "O=C(CC(=O)Nc1cccc(C(=O)O)c1)Nc1cccc(C(=O)O)c1"
// result > 100 µM

// query State its TGI: COc1cc(/C=C2\CCC(C)C3C2=NN(C(C)=O)C3c2cc(OC)c(OC)c(OC)c2)cc(OC)c1OC (configuration not stated)
// result > 100 µM

// query Specify TGI for O=c1nc2occc2cn1C1CC(O)C(CO)O1 (configuration not stated) and stop.
// result > 100 µM

// query Using the record for "COc1ccc(C(=O)c2cc(OC)c(C)c(OC)c2)cc1OC(=O)CCl" , state its measured TGI.
// result > 100 µM

// query Specify TGI for "CCn1c(-c2cc(OC)cc(OC)c2)nc2c1C(=O)c1ccccc1C2=O" and stop.
// result > 100 µM

// query Output TGI of COC(=O)Cc1cc(O)c(C/C=C(\C)CC/C=C(\C)C(O)C(=O)C=C(C)C)cc1O (configuration not stated)
// result 39.1 µM

// query Could you please provide reported TGI for "Cc1ccc(NC(=O)c2c(C)nc(=O)n3c2N(/N=C/c2ccc(Cl)cc2)CC3)cc1" ? Thanks!
// result > 100 µM

// query Item "O=C(O)CNc1cc(-c2ccccc2)nc(NCC(=O)O)n1" : provide TGI
// result > 100 µM

// query Look up TGI of "CCOC(CCNCC(OCC)OCC)OCC" and report it.
// result > 10 µM

// query Complete the entry with TGI for "CC/C(=C(/c1ccc(OCCN(C)C)cc1)c1ccc(OC(=O)CCCCC(=O)c2c(C)[nH]c(/C=C3\N=C(c4ccc[nH]4)C=C3OC)c2C)cc1)c1ccccc1"
// result 12.6 µM

// query Identify the reported TGI for the following entry. "Cn1c(=O)c2c(nc(Nc3cc(=O)[nH]c(=O)[nH]3)n2Cc2ccccc2)n(C)c1=O"
// result > 100 µM

// query Using the record for "O=S(=O)(c1ccccc1)n1c2cc3cccnc3nc2c2cccnc21" , state its measured TGI.
// result 55.3 µM

// query Report measured TGI; entry is Cc1ccc(S(=O)(=O)NCC2CCCCC2=O)cc1 (configuration not stated)
// result > 100 µM

// query State its TGI for this compound: CCCCCCCCCC/C=C/CC(=O)SCCNC(=O)CCNC(=O)[C@@H](O)C(C)(C)COP(=O)(O)OP(=O)(O)OCC1OC(n2cnc3c(N)ncnc32)C(O)C1OP(=O)(O)O (some centres not stated)
// result > 10 µM
